target: Cytochrome P450 3A4 (Homo sapiens); assay: qHTS Assay for Inhibitors and Substrates of Cytochrome P450 3A4 (AID 884); conditions: recombinant CYP3A4, Luciferin-PPXE luminescence; series mostly up to 57.1 µM; note: nearly all actives have a fitted effect of over 50% in size
Results filed as inconclusive are left out. Calls of active or inactive are those of the source. Calls come from the whole dose curve; as a rule, active = well fitted inhibition curve with a large enough effect; inconclusive = small, poorly fitted or top-dose-only effect; inactive = no such curve, though single readings can be large or run the other way.
Mark one answer only. Choices: active, inactive

Dear colleague, could you share the recorded outcome for Nc1ccc([N+](=O)[O-])cc1[N+](=O)[O-] when you have a moment? inactive

Dear colleague, could you share the recorded outcome for Cc1ccccc1[N+](=O)[O-] when you have a moment? inactive

Dear colleague, could you share the recorded outcome for CN(C)C(=O)Nc1ccc(Cl)cc1 when you have a moment? inactive

Dear colleague, could you share the recorded outcome for CCCBr when you have a moment? inactive

Dear colleague, could you share the recorded outcome for Cc1cc(C)cc(OP(=O)(Oc2cc(C)cc(C)c2)Oc2cc(C)cc(C)c2)c1 when you have a moment? active

Dear colleague, could you share the recorded outcome for CC(C)(Cl)Cl when you have a moment? inactive

Dear colleague, could you share the recorded outcome for ClC(Cl)C(Cl)Cl when you have a moment? inactive

Dear colleague, could you share the recorded outcome for CC(C)(OOC(C)(C)c1ccccc1)c1ccccc1 when you have a moment? inactive

Dear colleague, could you share the recorded outcome for O=C(O)CBr when you have a moment? inactive

Dear colleague, could you share the recorded outcome for O=C(O)C(Cl)Br (configuration not stated) when you have a moment? inactive

Dear colleague, could you share the recorded outcome for C#CCN[C@@H](C)Cc1ccccc1 when you have a moment? inactive

Dear colleague, could you share the recorded outcome for BrCCc1ccccc1 when you have a moment? inactive

Dear colleague, could you share the recorded outcome for CC(C)OC(=O)Cc1ccccc1 when you have a moment? inactive

Dear colleague, could you share the recorded outcome for Nc1ccccc1-c1ccccc1 when you have a moment? inactive

Dear colleague, could you share the recorded outcome for ClCCBr when you have a moment? inactive

Dear colleague, could you share the recorded outcome for CCCCC#N when you have a moment? inactive

Dear colleague, could you share the recorded outcome for CN(C)N=O when you have a moment? inactive

Dear colleague, could you share the recorded outcome for O=Cc1ccc(Cl)cc1Cl when you have a moment? inactive

Dear colleague, could you share the recorded outcome for O=[N+]([O-])c1ccc(Cl)cc1 when you have a moment? inactive

Dear colleague, could you share the recorded outcome for ClC=CCl when you have a moment? inactive

Dear colleague, could you share the recorded outcome for Clc1ccc(Cl)c(Cl)c1 when you have a moment? inactive

Dear colleague, could you share the recorded outcome for Nc1cc(Cl)ccc1Cl when you have a moment? inactive

Dear colleague, could you share the recorded outcome for O=C(O)C(Cl)(Cl)Br when you have a moment? inactive

Dear colleague, could you share the recorded outcome for O=C(O)c1cc(Cl)ccc1Cl when you have a moment? inactive

Dear colleague, could you share the recorded outcome for CC(C)Br when you have a moment? inactive

Dear colleague, could you share the recorded outcome for Nc1ccc(-c2ccccc2)cc1 when you have a moment? active

Dear colleague, could you share the recorded outcome for O=[N+]([O-])c1c(Cl)c(Cl)c(Cl)c(Cl)c1Cl when you have a moment? inactive

Dear colleague, could you share the recorded outcome for O=C(Cl)c1ccccc1F when you have a moment? inactive

Dear colleague, could you share the recorded outcome for CN(C)c1ccccc1 when you have a moment? inactive

Dear colleague, could you share the recorded outcome for CC(C)CON=O when you have a moment? inactive

Dear colleague, could you share the recorded outcome for CC(Cl)CCl (configuration not stated) when you have a moment? inactive

Dear colleague, could you share the recorded outcome for CCN(CC)N=O when you have a moment? inactive
